Cited source for all entries: patent US20050009924A1

- Tested on: transcriptional activity of hTERT
- TEST_NAME: SEAP reporter assay of hTERT expression, PhTERT-SEAP (H1299)
- Type: cell-based, human
- TEST_SETTINGS: Homo sapiens, NCI-H1299; 2.1 μM, H1299; read-out: Relative SEAP activity (%)
Reported activity at 2.1 µM values for a set of compounds
Number only, in %; omit the unit.

A selection of reference data follows.
O=C(Cc1ccccc1)Oc1cccc2c1C(=O)c1cccc(OC(=O)Cc3ccccc3)c1C2=O    98
Cc1ccc(C(=O)Oc2cccc3c2C(=O)c2cccc(OC(=O)c4ccc(C)cc4)c2C3=O)cc1    98

Returns the measured activity at 2.1 µM for the input compound. Input: `Cc1ccccc1C(=O)Oc1cccc2c1C(=O)c1cccc(OC(=O)c3ccccc3C)c1C2=O` 97

// query: O=C1c2cccc(SCCCCCCO)c2C(=O)c2cccc(SCCCCCCO)c21 [IIe, 1,5-Bis(hydroxyhexylthio)-anthraquinone] 110

Queued: `Cc1cccc(C(=O)Oc2cccc3c2C(=O)c2cccc(OC(=O)c4cccc(C)c4)c2C3=O)c1` 104

---

Documented viability at 48 h, 24 µM across a set of compounds
- TEST_NAME: MTT relative viability, PhTERT-SEAP (hTERT-BJ1) cells
- TEST_SETTINGS: human

O=C1c2cccc(SCC(O)CO)c2C(=O)c2cccc(SCC(O)CO)c21 (centres unmarked)    86%

Next:
So what's the measured viability at 48 h, 24 µM for this one? `CC(C)(C)C(=O)Oc1cccc2c1C(=O)c1cccc(OC(=O)C(C)(C)C)c1C2=O` 93%

---

# key: entry, value: Relative MTT viability (%)
- Test system: hTERT-BJ1 cells
- TEST_NAME: MTT relative viability, PhTERT-SEAP (hTERT-BJ1) cells
- TEST_SETTINGS: 207 μM, PhTERT-SEAP (hTERT-BJ1)
Give a bare numeral; the unit % is implied.

Worked examples follow.
Cc1cc(C(=O)Nc2ccc(NC(=O)c3cc(C)oc3C)c3c2C(=O)c2ccccc2C3=O)c(C)o1 [VI26]    93
O=C(Nc1ccc(NC(=O)c2ccccc2F)c2c1C(=O)c1ccccc1C2=O)c1ccccc1F [VI10]    86
O=C(Nc1ccc(NC(=O)c2cccc(F)c2)c2c1C(=O)c1ccccc1C2=O)c1cccc(F)c1 [VI12]    85

Find the measured Relative MTT viability (%): item O=C(Nc1ccc(NC(=O)c2ccc(F)cc2)c2c1C(=O)c1ccccc1C2=O)c1ccc(F)cc1 [VI30] , target or system hTERT-BJ1 cells. 83

---

- Test system: hTERT-BJ1 cells
- TEST_NAME: MTT relative viability, PhTERT-SEAP (hTERT-BJ1) cells
- TEST_SETTINGS: 1.9 μM, PhTERT-SEAP (hTERT-BJ1)
Overview of recorded Relative MTT viability (%) for various compounds
Number only, in %; omit the unit.

O=C(Nc1ccc(NC(=O)c2ccccc2Cl)c2c1C(=O)c1ccccc1C2=O)c1ccccc1Cl [VI2]    116
O=C(Nc1ccc(NC(=O)c2ccc(F)cc2F)c2c1C(=O)c1ccccc1C2=O)c1ccc(F)cc1F [VI18]    104
O=C(Nc1ccc(NC(=O)c2cccc(Cl)c2)c2c1C(=O)c1ccccc1C2=O)c1cccc(Cl)c1 [VI5]    99

Please turn your attention to the following entry.
Could you tell me which Relative MTT viability (%) is on file for O=C(Nc1ccc(NC(=O)c2ccc(Cl)cc2)c2c1C(=O)c1ccccc1C2=O)c1ccc(Cl)cc1 [VI16] ? 111
